Ref: the DeepSol protein solubility set

Measurement Notes: soluble on expression in E. coli; label from the status in PepcDB or PDB records
Observable: soluble on expression in E. coli

Record excerpt, results attached:
MTESDVDSGSKKYLSNHKGIFIHVTLEELKRYHQLTPEQKRLIRAIVKTLIHNPQLLDESSYLYRLLASKAISQFVCPLCLMPFSSSVSLKQHIRYTEHTKVCPVCKKEFTSTDSALDHVCKKHNICVS; soluble
MSAWTMSDPYPATEAHAQRAAKSSPKSLLDRLLSLVRREPEDREGIKAILEAAHERELLDAESYAMIKGALAVSERTVADIMVPRSRMDLLDISQPLPQLLATIIETAHSRFPVYEDDRDNIIGILLAKDLLRYMLEPALDIRSLVRPAVFIPEVKRLNVLLREFRASRNHLAIVIDEHGGISGLVTMEDVLEQIVGDIEDEFDEDEEESIFPEGENQWRLTASTDISHFNATFATDLPDDEYDSVGGWLGGQLGRIPRRGDSADHDGLHIEVVRADARRALWLRVRRNAGAQPPASAAE; not soluble
MLTDGSYFHLHLVSDSTGETLITVSRAVTAQYANVTPVEHVYPLVRSQKQLDRVLQEIEEAPGIVLFTLLETELVNRLEAKCQEINSPSLSIIGPVMQLFEAYLGASTMGRVGAQHTLNAEYFQRIDALNYSMMHDDGQHVEGLEEADVVLVGVSRTSKTPTSIYLANRGIRTANVPLVAGIPIPHQLETLKKPLVVSLHASPERLIQVRQNRLLSLGAGSGNDSYIDRQAVTDEVLLARKLSAKYGWSLLDVTRRSIEETAAAIMKLLADRQRQRVPELEHHHHHH; not soluble
MSLNAGKVVQTAKLFQDIHPEERLEKTLVDDRFAALREVIAGRTDGGQSGGGTMQIASLLTMLNEYYTQLTIADSALAAGTLPARITAADKLQLEAAKLPAPLKNILLDLTKQGTRKINAGTGDVLNTQMEAMMGDDCRDAIDGRYPFADSPQEVSAEDFNRIFASGGVLDAFWSKQLAPLADTASDPWRYKPTEGNMTLQGPDLTPFQQAKQIRSVFFNSEGGKKFSWSMQISVVDMDPAIMELVIDIDGQVLRYAHGPDRPLKVTWPGPRNGSMAEITASPRIRQDTSTLLTGGPWALFHLLDAGMVQETAVRGRQLVEYDFDGRRVVLEITAGRDFNPVSRELLQNFSCPARALEGHHHHHH; not soluble
MGSDKIHHHHHHMPEPELMDDPLQARAYAEADFSCGDEALIQRLQEYLISLCKIPSPGSMIVDLGCGPGNICERLQRLWPEVMVLGIDGAQAMLDHALQRQKAMAAELKRLTYRCSNLSSLVNQCVDLKCSAALVVSNSLLHHLHDPNLLWQVTKYLAAPGAFVFHRDLRRPLSTKHAIALQQKHMQEAPSILIRDYLASLHAAFTLEEVQSQLVHAGLDHLHVIEVEDRYLDVFGTI; not soluble

Sample NLYFQGHMDNVDELRKIENKSSFVSADNMPEYVKGAFISMQDERFYNHHGFDLKGTTRALFSTISDRDVQGGSTITQQVVKNYFYDNDRSFTRKVKELFVAHRVEKQYNKNEILSFYLNNIYFGDNQYTLEGAANHYFGTTVNKNSTTMSHITVLQSAILASKVNAPSVYNINNMSENFTQRVSTNLEKMKQQNYINETQYQQAMSQLN ; soluble on expression in E. coli observed: soluble

The reported value for MFERLREDIQSVFHRDPAARNAFEVLTCYPGMHAIWLHRLGNALWRRDFKWLARLVSNFGRWLTGIEIHPGATIGRRFFIDHGMGIVIGETAEIGDDVTLYQGVTLGGTSWNKGKRHPTLENGVVVGAGAKVLGPFTVGAGAKIGSNAVVTKAVPAGATAVGIPGRIIVKSEDTEVEAKRKAMAEKIGFDAYGVSGDMPDPVARAIGQMLDHLQAVDERLEGMCGALTKMGSDYCAKELPALPEDDFSLEHHHHHH in terms of soluble on expression in E. coli is soluble

For reference, reported soluble on expression in E. coli for DADAEFDIVIGNIEDIIMEDEFQHLQQSFMEKYYLEFDDSEENKLSYTPIFNEYIEILEKHLEQQLVERIPGFNMDAFTHSLKQHKDEVSGDILDMLLTFTDFMAFKEMFTDYRAEKEGRG stands at soluble

###

Measurement Notes: soluble on expression in E. coli; label from the status in PepcDB or PDB records
Observable: soluble on expression in E. coli

Here are 4 sequences together with their reported answers.
MGSDKIHHHHHHMTVNDKKRLAIIGGGPGGLAAARVFSQSLPNFEIEIFVKDYDIGGVWHYPEQKSDGRVMYDHLETNISKKLMQFSGFPFEENVPLYPSRRNIWEYLKAYYKTFIANKDAISIHFSTEVTYLKKKNSQWEITSKDELRTTKSDFDFVIVASGHYSVPKLPTNIAGLDLWFDNKGAFHSKDFKNCEFAREKVVIVVGNGSSGQDIANQLTTVAKKVYNSIKEPASNQLKAKLIETVQTIDSADWKNRSVTLSDGRVLQNIDYIIFATGYYYSFPFIEPSVRLEVLGEGVTGDKHSSVNLHNLWEHMIYVKDPTLSFILTPQLVIPFPLSELQAAIMVEVFCKSLPITTTFDSNACGTHNFPKERTWNTMQNYRNY; not soluble
MRGSHHHHHHGSMTRSALVTGITGQDGAYLAKLLLEKGYRVHGLVARRSSDTRWRLRELGIEGDIQYEDGDMADACSVQRAVIKAQPQEVYNLAAQSFVGASWNQPVTTGVVDGLGVTHLLEAIRQFSPETRFYQASTSEMFGLIQAERQDENTPFYPRSPYGVAKLYGHWITVNYRESFGLHASSGILFNHESPLRGIEFVTRKVTDAVARIKLGKQQELRLGNVDAKRDWGFAGDYVEAMWLMLQQDKADDYVVATGVTTTVRDMCQIAFEHVGLDYRDFLKIDPAFFRPAEVDVLLGNPAKAQRVLGWKPRTSLDELIRMMVEADLRRVSRE; soluble
SLSPAPTTMDFTPAPLEDTSSRPQFCKWPCECPPSPPRCPLGVSLITDGCECCKMCAQQLGDNCTEAAICDPHRGLYCDYSGDRPRYAIGVCAQVVGVGCVLDGVRYNNGQSFQPNCKYNCTCIDGAVGCTPLCLRVRPPRLWCPHPRRVSIPGHCCEQWVCEDDAKRPRKTAPRDTGAFDAVGEG; soluble
MGSDKIHHHHHHMDEIELRHILHMNPELSFKEYRTKETLRKAVIEIGYEKIIEVAGTGLVIEKKETEDPYVVLRADMDALPIKEETGWEFASRNEYMHACGHDFHMSALYGAMKRLRNVKKNFLFVFQPAEETGGGAKEVVDFLKDKYEIKAAVGFHVTDEYDAGTVASRPGVLFASATEFDVYFKGVPAHVAFAEKGKDALKAAVSFLGWLYNKKWNALVGVGKISGGRARNIVPDEIKLEGTIRSEALRITEEVISNMVKQLGELKEEMGVDFAVERGSVYPEVKVDQNLFETLRETCQRLGFSFVECDMKWTGEDFGYFSQVFPSLLFWFGVGEGERFGLHHPRFLPNDRYIPMAADLLAELAMVI; not soluble

Recorded result, GKDFTYNASLTFSHARNEIRNMDEPATKTAYRKQEGHPINQYFGLVCDGFVTQADLNNPDFPVSTFGNVQVGDLKYRDMNGDGFIDSRDETFIGYSDVPENTYALSLGCEYKGIGFSIMFQGVDHVSRYYDAEAMYAFVNGGKVKEHHLNRWNPNQSEAYNLTHASYPLLHYDSYGDHNQRKNSFFLKNGNFLRLKNIELSYSLPARWIRKVAMNECRVYVNANNLITWDKLDGLCDPESEGSNRYPIMKTVNFGVNIKF , soluble on expression in E. coli: not soluble

###

Measurement Notes: soluble on expression in E. coli; label from the status in PepcDB or PDB records
Observable: soluble on expression in E. coli

MRQPEDGNIRLWRYMDFSKFVALISSKSLFLNRVDRFTDPYEGHFSSLNNRLRNSIYEAKYAGSEIDPHKVASAIFDFNSFSRQWTYVNCWHANKYESAAMWDLYAKTEEAIAIETDYNSLAAVLPSEAQLGFVEYIDFDTEWMPENNATYPYLHKRKSFEHEKEVRIIVQEIPRAKSGVGFDREAVNDKHGISLDIDLNQLIKSIHVSPTAPKWLVDLTDTVSKTFGIDAHVKQSDLYKAPIK; soluble
SLRHFGKRLRVSSSQPFRRSFNPKGEPMSTQIFVNLPVKNLNQSIEFFTQLGFQFNSQFTDETATCMIVSESIFVMLLTHEKFKMFTPKEICDATKSTEVLVCLSFDSREQVDEMVRLAVTAGGTTYNEPQDHGFMYGHGFADLDGHIWEIIYMEPSAINLGEG; soluble

###

Measurement Notes: soluble on expression in E. coli; label from the status in PepcDB or PDB records
Observable: soluble on expression in E. coli

MGSDKIHHHHHHMSKFWEKEFTCPFCGTKFKKKMVFFDSIKIKARDIDLKPVFEDVNPMFYEVVTCPNCYFSAFDKDFETITIKGEETERKLKKLLEEAKKKVELKNVENHVEAIKRYALSGMVYSVLNQRKKVAISYLKIAWLFRELGKSEEEKRYLERALKEFESHYKYDYYEESDEPMILFYLGVLNQILGNRKEAARWYELLLRKYDGKSLYAKVGRERWQELRRS; not soluble
MQHPTTKYVKLSFALIFLFNIASASIFSDDVTEATSSPDTTTTAVAIRAKRQCGGMGGCCGGMSGCGCGSMGMCGQTCCPSAPPPCSCGTPGCMQCVQQTVLVPVTTTTCCKCCQPVCTNACTNGGGCSCGCTRGGCSRKRRSLLAIASEEMSKRGDVMV; not soluble
